// data source = ChEMBL document CHEMBL1151938

Experiment: Selectivity ratio of CC50 for human MT2 cells to EC50 for HIV1 3B infected human MT2 cells
Format: ADME, cell-based
Settings: MT2 cells and HIV1 3B infected MT2 cells, read-out: Ratio CC50/EC50
assay_metric: selectivity ratio
Would you mind answering with just the numeric figure?

Below: 2 molecules and their reported selectivity ratio.
molecule | selectivity ratio
CC[C@@](C)(CC(=O)N[C@H](CC(=O)O)CC(=O)NC(C)(C)CC(=O)NC(CC(=O)N[C@@H](CCN)CC(=O)NC(C)(C)CC(=O)N[C@H](CC(=O)NC(CC(=O)O)CC(=O)O)Cc1c[nH]c2ccccc12)Cc1ccccc1Cl)NC(=O)CC(C)(C)NC(=O)C[C@@H](N)CCN (stereo partly drawn) | 3.5
CC[C@@](C)(CC(=O)N[C@H](CC(=O)O)CC(=O)NC(C)(C)CC(=O)NC(CC(=O)N[C@@H](CCN)CC(=O)NC(C)(C)CC(=O)N[C@H](CC(=O)NC(CC(=O)O)CC(=O)O)Cc1c[nH]c2ccccc12)Cc1cccc(C(F)(F)F)c1)NC(=O)CC(C)(C)NC(=O)C[C@@H](N)CCN (stereo partly drawn) | 7.9

Then this molecule:
# selectivity ratio of CC[C@@](C)(CC(=O)N[C@H](CC(=O)O)CC(=O)NC(C)(C)CC(=O)N[C@@H](CC(=O)N[C@@H](CCN)CC(=O)NC(C)(C)CC(=O)N[C@H](CC(=O)NC(CC(=O)O)CC(=O)O)Cc1c[nH]c2ccccc12)Cc1c[nH]c2ccccc12)NC(=O)CC(C)(C)NC(=O)C[C@@H](N)CCN = 1.8

* * *

The entries below come with measured CC50 values attached.
Assay: Cytotoxicity against human MT2 cells by MTT colorimetric method
Assay type: cell-based
Please give a number only; it is taken to be in µM.

molecule | assay_metric | observed_value
CC[C@@](C)(CC(=O)N[C@H](CC(=O)O)CC(=O)NC(C)(C)CC(=O)NC(CC(=O)N[C@@H](CCN)CC(=O)NC(C)(C)CC(=O)N[C@H](CC(=O)NC(CC(=O)O)CC(=O)O)Cc1c[nH]c2ccccc12)Cc1ccccc1Cl)NC(=O)CC(C)(C)NC(=O)C[C@@H](N)CCN (stereo partly drawn) | CC50 | 31

Please fill in: CC50 reported for CC[C@@](C)(CC(=O)N[C@H](CC(=O)O)CC(=O)NC(C)(C)CC(=O)NC(CC(=O)N[C@@H](CCN)CC(=O)NC(C)(C)CC(=O)N[C@H](CC(=O)NC(CC(=O)O)CC(=O)O)Cc1c[nH]c2ccccc12)Cc1ccc(I)cc1)NC(=O)CC(C)(C)NC(=O)C[C@@H](N)CCN (stereo partly drawn) = 23

For record CC[C@@](C)(CC(=O)N[C@H](CC(=O)O)CC(=O)NC(C)(C)CC(=O)N[C@@H](CC(=O)N[C@@H](CCN)CC(=O)NC(C)(C)CC(=O)N[C@H](CC(=O)NC(CC(=O)O)CC(=O)O)Cc1c[nH]c2ccccc12)Cc1c[nH]c2ccccc12)NC(=O)CC(C)(C)NC(=O)C[C@@H](N)CCN the listed CC50 is 100

* * *

Experiment: Cytotoxicity against human MT2 cells by MTT colorimetric method
Assay type: cell-based
assay_metric: CC50 (µM)
Write it as a number; the unit µM goes unstated.

Examples with answers:
compound | units_of_measure | CC50
CC[C@@](C)(CC(=O)N[C@H](CC(=O)O)CC(=O)NC(C)(C)CC(=O)NC(CC(=O)N[C@@H](CCN)CC(=O)NC(C)(C)CC(=O)N[C@H](CC(=O)NC(CC(=O)O)CC(=O)O)Cc1c[nH]c2ccccc12)Cc1cccc(F)c1)NC(=O)CC(C)(C)NC(=O)C[C@@H](N)CCN (some centres undefined) | µM | 50
CC[C@@](C)(CC(=O)N[C@H](CC(=O)O)CC(=O)NC(C)(C)CC(=O)NC(CC(=O)N[C@@H](CCN)CC(=O)NC(C)(C)CC(=O)N[C@H](CC(=O)NC(CC(=O)O)CC(=O)O)Cc1c[nH]c2ccccc12)Cc1cccc(C(F)(F)F)c1)NC(=O)CC(C)(C)NC(=O)C[C@@H](N)CCN (some centres undefined) | µM | 150

Let's switch to this compound now.
So for CC[C@@](C)(CC(=O)N[C@H](CC(=O)O)CC(=O)NC(C)(C)CC(=O)NC(CC(=O)N[C@@H](CCN)CC(=O)NC(C)(C)CC(=O)N[C@H](CC(=O)NC(CC(=O)O)CC(=O)O)Cc1c[nH]c2ccccc12)Cc1ccc2ccccc2c1)NC(=O)CC(C)(C)NC(=O)C[C@@H](N)CCN (some centres undefined) , the logged CC50 turned out to be 23
